ASSAYED TARGET: UniProtKB O60674
ASSAY DETAILS: Biochemical JAK kinase assay (LanthaScreen), JAK2
PROTOCOL CONDITIONS: read-out: JAK2 pKi (converted)

| COMPOUND | Ki |
| --- | --- |
| CCc1cc(O)ccc1-c1ccc2c(-c3nc(C4=CC[C@H](C)N(CCN5CCCC5=O)C4)c[nH]3)n[nH]c2c1F | 0.1 to 1 nM |
| CCc1cc(O)ccc1-c1ccc2c(-c3nc(C4=CCN(Cc5ccccc5)CC4)c[nH]3)n[nH]c2c1F | 1 to 10 nM |
| CCc1cc(O)ccc1-c1ccc2c(-c3nc(C4=C[C@H](C)NCC4)c[nH]3)n[nH]c2c1F | 0.1 to 1 nM |
| CCc1cc(O)ccc1-c1ccc2c(-c3nc(C4=CCN(CC5CCCOC5)CC4)c[nH]3)n[nH]c2c1F (stereo not shown) | 0.1 to 1 nM |

---

# Ki values compiled below
ASSAYED TARGET: JAK1 (Homo sapiens (Human))
Sequence (P23458 whole entry): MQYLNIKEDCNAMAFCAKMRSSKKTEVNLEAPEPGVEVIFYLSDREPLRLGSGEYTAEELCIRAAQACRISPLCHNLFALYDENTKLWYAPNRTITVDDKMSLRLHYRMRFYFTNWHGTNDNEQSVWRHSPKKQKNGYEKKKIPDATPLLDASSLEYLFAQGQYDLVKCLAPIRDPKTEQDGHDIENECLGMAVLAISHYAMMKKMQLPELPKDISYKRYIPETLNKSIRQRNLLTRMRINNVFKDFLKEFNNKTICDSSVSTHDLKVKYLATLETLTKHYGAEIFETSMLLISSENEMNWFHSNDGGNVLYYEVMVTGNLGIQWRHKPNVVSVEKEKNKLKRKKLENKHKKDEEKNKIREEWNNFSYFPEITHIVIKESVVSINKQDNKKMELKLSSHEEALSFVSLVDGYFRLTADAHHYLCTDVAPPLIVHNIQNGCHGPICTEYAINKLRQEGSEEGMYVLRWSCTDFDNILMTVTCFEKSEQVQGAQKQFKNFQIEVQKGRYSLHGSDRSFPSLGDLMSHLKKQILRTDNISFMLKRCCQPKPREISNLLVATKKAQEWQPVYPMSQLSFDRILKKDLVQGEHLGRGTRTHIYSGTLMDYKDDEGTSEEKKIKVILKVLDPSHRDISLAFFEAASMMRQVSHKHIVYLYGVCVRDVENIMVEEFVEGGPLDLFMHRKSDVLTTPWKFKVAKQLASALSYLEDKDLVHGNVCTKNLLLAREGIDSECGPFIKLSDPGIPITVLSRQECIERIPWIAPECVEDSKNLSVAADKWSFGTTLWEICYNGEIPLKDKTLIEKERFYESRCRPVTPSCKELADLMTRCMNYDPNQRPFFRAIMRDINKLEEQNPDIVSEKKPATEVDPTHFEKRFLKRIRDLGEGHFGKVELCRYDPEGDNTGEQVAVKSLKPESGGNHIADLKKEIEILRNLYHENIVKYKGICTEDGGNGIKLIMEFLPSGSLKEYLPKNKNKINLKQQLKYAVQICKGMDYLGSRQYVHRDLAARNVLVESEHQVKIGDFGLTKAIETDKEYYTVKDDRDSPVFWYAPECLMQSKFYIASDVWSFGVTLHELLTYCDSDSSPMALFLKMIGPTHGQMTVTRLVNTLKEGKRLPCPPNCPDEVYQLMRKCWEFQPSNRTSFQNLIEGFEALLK
ASSAY DETAILS: Biochemical JAK kinase assay (LanthaScreen), JAK1
PROTOCOL CONDITIONS: read-out: JAK1 pKi (converted)

| COMPOUND | Ki |
| --- | --- |
| CCc1cc(O)ccc1-c1ccc2c(-c3nc(C4=CCNC(C(C)(C)C)C4)c[nH]3)n[nH]c2c1F (stereo not shown) [Example 370] | 1 to 10 nM |
| CCc1cc(O)ccc1-c1ccc2c(-c3nc(C4=CCN(CCC(C)(C)O)CC4)c[nH]3)n[nH]c2c1F [Example 37] | 0.1 to 1 nM |
| CCc1cc(O)ccc1-c1ccc2c(-c3nc(C4=CCN(CCN5CCNC5=O)C4)c[nH]3)n[nH]c2c1 [Example 127] | 0.1 to 1 nM |
| CCc1cc(O)ccc1-c1ccc2c(-c3nc(C4=CCN(C(=O)CCNCCOC)C4)c[nH]3)n[nH]c2c1F [Example 381] | 0.1 to 1 nM |

---

ASSAYED TARGET: TYK2 (Homo sapiens (Human), UniProt P29597)
Sequence (P29597 whole entry): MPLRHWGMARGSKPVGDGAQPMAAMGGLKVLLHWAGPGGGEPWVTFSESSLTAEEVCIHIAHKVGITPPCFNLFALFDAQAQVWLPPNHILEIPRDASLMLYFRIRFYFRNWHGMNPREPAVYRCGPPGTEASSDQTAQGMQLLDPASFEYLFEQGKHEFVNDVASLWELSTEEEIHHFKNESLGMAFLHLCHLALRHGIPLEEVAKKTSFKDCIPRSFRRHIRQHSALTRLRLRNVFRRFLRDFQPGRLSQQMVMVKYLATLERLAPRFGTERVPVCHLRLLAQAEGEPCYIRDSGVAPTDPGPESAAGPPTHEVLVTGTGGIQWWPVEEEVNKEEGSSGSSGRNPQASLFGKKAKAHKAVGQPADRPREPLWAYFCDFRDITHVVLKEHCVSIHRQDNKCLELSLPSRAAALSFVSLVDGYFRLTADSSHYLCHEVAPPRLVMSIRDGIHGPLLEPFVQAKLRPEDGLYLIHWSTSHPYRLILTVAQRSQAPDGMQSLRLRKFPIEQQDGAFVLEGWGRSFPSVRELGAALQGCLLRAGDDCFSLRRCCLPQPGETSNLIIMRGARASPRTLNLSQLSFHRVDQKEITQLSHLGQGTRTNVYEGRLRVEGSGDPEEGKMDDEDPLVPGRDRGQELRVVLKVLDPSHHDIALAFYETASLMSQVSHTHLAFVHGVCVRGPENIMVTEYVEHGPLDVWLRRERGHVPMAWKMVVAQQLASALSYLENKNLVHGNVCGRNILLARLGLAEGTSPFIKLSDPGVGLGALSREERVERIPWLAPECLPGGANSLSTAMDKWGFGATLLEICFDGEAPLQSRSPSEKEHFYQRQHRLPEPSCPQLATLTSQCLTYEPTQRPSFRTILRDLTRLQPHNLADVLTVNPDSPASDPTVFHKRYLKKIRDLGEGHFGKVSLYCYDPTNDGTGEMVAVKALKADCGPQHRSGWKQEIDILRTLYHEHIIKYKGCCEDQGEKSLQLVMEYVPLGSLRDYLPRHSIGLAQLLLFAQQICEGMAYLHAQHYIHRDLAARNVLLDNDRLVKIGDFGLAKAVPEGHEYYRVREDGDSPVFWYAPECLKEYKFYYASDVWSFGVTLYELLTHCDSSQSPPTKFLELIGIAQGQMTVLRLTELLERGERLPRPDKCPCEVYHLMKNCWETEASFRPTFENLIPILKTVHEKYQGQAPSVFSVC
ASSAY DETAILS: Biochemical JAK kinase assay (LanthaScreen), Tyk2
PROTOCOL CONDITIONS: read-out: Tyk2 pKi (converted)

| COMPOUND | Ki |
| --- | --- |
| CCc1cc(O)ccc1-c1ccc2c(-c3nc(C4=CCCNC4)c[nH]3)n[nH]c2c1F [Compound 6] | 1 to 10 nM |
| CCc1cc(O)ccc1-c1ccc2c(-c3nc(C4=CC(C)NC4)c[nH]3)n[nH]c2c1F (stereo not shown) [Example 244] | 1 to 10 nM |
| CCc1cc(O)ccc1-c1ccc2c(-c3nc(C4=CCCN(CCSC)C4)c[nH]3)n[nH]c2c1F [Example 90] | 10 to 100 nM |
| CCc1cc(O)ccc1-c1ccc2c(-c3nc(C4=CCN(S(=O)(=O)C5CNC5)CC4)c[nH]3)n[nH]c2c1F [Example 178] | 10 to 100 nM |
| CCc1cc(O)ccc1-c1ccc2c(-c3nc(C4=CCN(C(C)C)CC4)c[nH]3)n[nH]c2c1 [Example 20] | 1 to 10 nM |
| CCc1cc(O)ccc1-c1ccc2c(-c3nc(C4=CCCN(C[C@H]5COCCN5)C4)c[nH]3)n[nH]c2c1F [Example 197] | 1 to 10 nM |
| CCc1cc(O)ccc1-c1ccc2c(-c3nc(C4=CC[C@H](C)NC4)c[nH]3)n[nH]c2c1 [Example 230] | 1 to 10 nM |

---

ASSAYED TARGET: JAK2 (Homo sapiens (Human))
Sequence (O60674 whole entry): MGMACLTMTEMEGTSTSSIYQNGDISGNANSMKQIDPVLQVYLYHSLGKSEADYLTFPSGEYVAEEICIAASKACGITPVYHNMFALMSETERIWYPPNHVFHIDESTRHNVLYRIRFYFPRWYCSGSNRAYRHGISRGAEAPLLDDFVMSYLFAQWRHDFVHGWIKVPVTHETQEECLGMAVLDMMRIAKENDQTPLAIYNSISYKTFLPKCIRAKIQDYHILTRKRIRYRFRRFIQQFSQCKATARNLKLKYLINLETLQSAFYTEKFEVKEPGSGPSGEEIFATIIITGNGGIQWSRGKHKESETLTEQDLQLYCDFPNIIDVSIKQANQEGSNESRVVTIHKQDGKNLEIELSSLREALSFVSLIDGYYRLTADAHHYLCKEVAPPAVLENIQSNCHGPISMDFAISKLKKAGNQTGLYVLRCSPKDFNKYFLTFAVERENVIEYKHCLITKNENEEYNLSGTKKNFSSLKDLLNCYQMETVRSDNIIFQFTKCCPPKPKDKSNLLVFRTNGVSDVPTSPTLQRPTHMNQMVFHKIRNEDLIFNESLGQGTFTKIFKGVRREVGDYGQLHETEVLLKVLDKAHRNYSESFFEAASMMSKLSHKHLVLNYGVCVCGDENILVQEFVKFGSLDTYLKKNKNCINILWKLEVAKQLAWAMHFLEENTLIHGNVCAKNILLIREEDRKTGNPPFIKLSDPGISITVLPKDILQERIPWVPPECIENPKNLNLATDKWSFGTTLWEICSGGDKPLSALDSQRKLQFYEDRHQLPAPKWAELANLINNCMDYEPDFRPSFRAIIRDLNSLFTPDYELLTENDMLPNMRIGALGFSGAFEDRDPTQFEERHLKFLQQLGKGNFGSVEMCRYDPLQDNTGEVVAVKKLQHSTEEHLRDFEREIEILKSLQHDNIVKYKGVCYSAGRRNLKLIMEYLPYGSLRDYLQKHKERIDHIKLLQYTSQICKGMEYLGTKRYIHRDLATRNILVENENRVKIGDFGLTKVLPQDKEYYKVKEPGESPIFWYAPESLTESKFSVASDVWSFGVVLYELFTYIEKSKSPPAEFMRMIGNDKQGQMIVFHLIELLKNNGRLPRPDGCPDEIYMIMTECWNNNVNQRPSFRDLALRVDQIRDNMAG
ASSAY DETAILS: Biochemical JAK kinase assay (LanthaScreen), JAK2
PROTOCOL CONDITIONS: read-out: JAK2 pKi (converted)
QUANTITY KIND: Ki

| COMPOUND | RESULT |
| --- | --- |
| CCc1cc(O)ccc1-c1ccc2c(-c3nc(C4=CC5CNCCN5CC4)c[nH]3)n[nH]c2c1F (stereo not shown) [Example 358] | 0.1 to 1 nM |
| CCc1cc(O)ccc1-c1ccc2c(-c3nc(C4=CC[C@H](C)N(CCS(C)(=O)=O)C4)c[nH]3)n[nH]c2c1F [Example 276] | 0.1 to 1 nM |
| CCc1cc(O)c(C)cc1-c1ccc2c(-c3nc(C4=CCNCC4)c[nH]3)n[nH]c2c1F [Example 371] | 1 to 10 nM |
| CCc1cc(O)ccc1-c1ccc2c(-c3nc(C4=CC[C@H](C)N(C(C)CO)C4)c[nH]3)n[nH]c2c1F (stereo partly shown) [Example 259] | 0.1 to 1 nM |

---

The reader will find reported IC50 values listed item by item below.
Tested on: IL-13 induced STAT6 phosphorylation in BEAS-2B human lung epithelial cells
ASSAY DETAILS: Cellular JAKI potency assay (BEAS-2B)
Format: cell-based
PROTOCOL CONDITIONS: Homo sapiens, BEAS-2B, BEAS-2B cells, read-out: BEAS2B pIC50 (converted)
QUANTITY KIND: IC50

| COMPOUND | QUANTITY KIND | RESULT |
| --- | --- | --- |
| CCc1cc(O)ccc1-c1ccc2c(-c3nc(C4=CCN(C5CCCNC5)C4)c[nH]3)n[nH]c2c1F (stereo not drawn) [Example 222] | IC50 | 0.01 to 0.0316 µM |
| CCc1cc(O)ccc1-c1ccc2c(-c3nc(C4=CCCN(C(C)C)C4)c[nH]3)n[nH]c2c1F [Example 30] | IC50 | 0.01 to 0.0316 µM |
| CCOC(=O)C1=C(c2c[nH]c(-c3n[nH]c4c(F)c(-c5ccc(O)cc5CC)ccc34)n2)CNCC1 [Example 301] | IC50 | 0.01 to 0.0316 µM |
| CCc1cc(O)ccc1-c1ccc2c(-c3nc(C4=CCN(C[C@@H]5COCCN5)C4)c[nH]3)n[nH]c2c1F [Example 205] | IC50 | 0.01 to 0.0316 µM |
| CCc1cc(O)ccc1-c1ccc2c(-c3nc(C4=CCN(C5COC5)C4)c[nH]3)n[nH]c2c1F [Example 75] | IC50 | 0.01 to 0.0316 µM |
| Oc1ccc(-c2ccc3c(-c4nc(C5=CCNC5)c[nH]4)n[nH]c3c2)c(CC(F)(F)F)c1 [Example 378] | IC50 | 0.0316 to 0.1 µM |
| CCc1cc(O)ccc1-c1ccc2c(-c3nc(C4=CCNCC4C)c[nH]3)n[nH]c2c1 (stereo not drawn) [Example 298] | IC50 | 0.01 to 0.0316 µM |
| CCc1cc(O)ccc1-c1ccc2c(-c3nc(C4=CCCN(CCNC(C)=O)C4)c[nH]3)n[nH]c2c1F [Example 112] | IC50 | 0.01 to 0.0316 µM |
| CCc1cc(O)ccc1-c1ccc2c(-c3nc(C4=CCCN(CCN5CCNC5=O)C4)c[nH]3)n[nH]c2c1 [Example 124] | IC50 | 0.00316 to 0.01 µM |
| CCc1cc(O)ccc1-c1ccc2c(-c3nc(C4=CCN[C@@H](CO)C4)c[nH]3)n[nH]c2c1F [Example 347] | IC50 | 0.0316 to 0.1 µM |
| CCc1cc(O)ccc1-c1ccc2c(-c3nc(C4=CCN(CCC5(O)CCC5)C4)c[nH]3)n[nH]c2c1F [Example 308] | IC50 | 0.01 to 0.0316 µM |
| CCc1cc(O)ccc1-c1ccc2c(-c3nc(C4=CCN(CCN5CCCC5=O)CC4)c[nH]3)n[nH]c2c1F [Example 119] | IC50 | 0.01 to 0.0316 µM |
| CCc1cc(O)ccc1-c1ccc2c(-c3nc(C4=CCN(CC)CC4)c[nH]3)n[nH]c2c1F [Example 23] | IC50 | 0.00316 to 0.01 µM |
| CCc1cc(O)ccc1-c1ccc2c(-c3nc(C4=CCN(CCN(C)C)CC4)c[nH]3)n[nH]c2c1F [Example 209] | IC50 | 0.01 to 0.0316 µM |
| CCc1cc(O)ccc1-c1ccc2c(-c3nc(C4=CCCN(C(C)CO)C4)c[nH]3)n[nH]c2c1F (stereo not drawn) [Example 46] | IC50 | 0.01 to 0.0316 µM |

---

Tested on: IL-13 induced STAT6 phosphorylation in BEAS-2B human lung epithelial cells
ASSAY DETAILS: Cellular JAKI potency assay (BEAS-2B)
Type: cell-based
PROTOCOL CONDITIONS: Homo sapiens, BEAS-2B, BEAS-2B cells, read-out: BEAS2B pIC50 (converted)

| COMPOUND | ASSAYED TARGET | IC50 |
| --- | --- | --- |
| CCc1cc(O)ccc1-c1ccc2c(-c3nc(C4=CCN(CCCO)CC4)c[nH]3)n[nH]c2c1F | IL-13 induced STAT6 phosphorylation in BEAS-2B human lung epithelial cells | 10 to 31.6 nM |
| CCc1cc(O)ccc1-c1ccc2c(-c3nc(C4=C[C@H](CC(=O)N5CCN(C)CC5)NC4)c[nH]3)n[nH]c2c1F | IL-13 induced STAT6 phosphorylation in BEAS-2B human lung epithelial cells | 31.6 to 100 nM |
| CCc1cc(O)ccc1-c1ccc2c(-c3nc(C4=CC5CCCC(C4)N5)c[nH]3)n[nH]c2c1 (stereo not drawn) | IL-13 induced STAT6 phosphorylation in BEAS-2B human lung epithelial cells | 31.6 to 100 nM |
| CCc1cc(O)ccc1-c1ccc2c(-c3nc(C4=CCN(C(=O)CN)CC4)c[nH]3)n[nH]c2c1 | IL-13 induced STAT6 phosphorylation in BEAS-2B human lung epithelial cells | 10 to 31.6 nM |
| CCc1cc(O)ccc1-c1ccc2c(-c3nc(C4=CCN(CCC(=O)NC)C4)c[nH]3)n[nH]c2c1 | IL-13 induced STAT6 phosphorylation in BEAS-2B human lung epithelial cells | 10 to 31.6 nM |
| CCc1cc(O)ccc1-c1ccc2c(-c3nc(C4=CCNCC4)c[nH]3)n[nH]c2c1 | IL-13 induced STAT6 phosphorylation in BEAS-2B human lung epithelial cells | 3.16 to 10 nM |
| CCc1cc(O)ccc1-c1ccc2c(-c3nc(C4=CCN(CC(=O)NC(C)(C)C)CC4)c[nH]3)n[nH]c2c1F | IL-13 induced STAT6 phosphorylation in BEAS-2B human lung epithelial cells | 31.6 to 100 nM |
| CCc1cc(O)ccc1-c1ccc2c(-c3nc(C4=C[C@H](CO)N(C)C4)c[nH]3)n[nH]c2c1F | IL-13 induced STAT6 phosphorylation in BEAS-2B human lung epithelial cells | 3.16 to 10 nM |
| CCc1cc(O)ccc1-c1ccc2c(-c3nc(C4=C[C@H](CC#N)NC4)c[nH]3)n[nH]c2c1F | IL-13 induced STAT6 phosphorylation in BEAS-2B human lung epithelial cells | 10 to 31.6 nM |
| CCc1cc(O)ccc1-c1ccc2c(-c3nc(C4=CCN(S(C)(=O)=O)CC4)c[nH]3)n[nH]c2c1F | IL-13 induced STAT6 phosphorylation in BEAS-2B human lung epithelial cells | 10 to 31.6 nM |
| CCc1cc(O)ccc1-c1ccc2c(-c3nc(C4=CCN(C5CCN(C)CC5)C4)c[nH]3)n[nH]c2c1F | IL-13 induced STAT6 phosphorylation in BEAS-2B human lung epithelial cells | 3.16 to 10 nM |
| CCc1cc(O)ccc1-c1ccc2c(-c3nc(C4=CCCN(C(C)=O)C4)c[nH]3)n[nH]c2c1 | IL-13 induced STAT6 phosphorylation in BEAS-2B human lung epithelial cells | 10 to 31.6 nM |
| CCc1cc(O)ccc1-c1ccc2c(-c3nc(C4=C[C@H](CO)N(C5CCOCC5)C4)c[nH]3)n[nH]c2c1F | IL-13 induced STAT6 phosphorylation in BEAS-2B human lung epithelial cells | 10 to 31.6 nM |
| CCc1cc(O)ccc1-c1ccc2c(-c3nc(C4=C[C@@H](CC(=O)N(C)C)NC4)c[nH]3)n[nH]c2c1F | IL-13 induced STAT6 phosphorylation in BEAS-2B human lung epithelial cells | 31.6 to 100 nM |
| CCc1cc(O)ccc1-c1ccc2c(-c3nc(C4=CCCN(C[C@@H]5COCCN5)C4)c[nH]3)n[nH]c2c1F | IL-13 induced STAT6 phosphorylation in BEAS-2B human lung epithelial cells | 31.6 to 100 nM |
